Each recorded value in this set is attributed to patent US11091478B2.

system: RS4;11 cells; test: Cell proliferation assay (MTS), RS4;11 cells, 72 h; assay type: cell-based
Each entry below carries its reported IC50.
Number in nM, nothing else.

{"COMPOUND": "COC1CCC([C@H]2COc3cc(S(=O)(=O)NC(=O)c4ccc(N5CCN(CC6=C(c7ccc(Cl)cc7)CC(C)(C)CC6)CC5)cc4Oc4cnc5[nH]ccc5c4)cc([N+](=O)[O-])c3N2)CC1 (stereo partly shown) [Example 2-247B]", "MEASURED_QUANTITY": "IC50", "MEAS_VALUE": 45}
{"COMPOUND": "COC1CCC([C@@H]2COc3cc(S(=O)(=O)NC(=O)c4ccc(N5CCN(CC6=C(c7ccc(Cl)cc7)CC(C)(C)CC6)CC5)cc4Oc4cnc5[nH]ccc5c4)cc([N+](=O)[O-])c3N2)CC1 (stereo partly shown) [Example 2-248B]", "MEASURED_QUANTITY": "IC50", "MEAS_VALUE": 64}
{"COMPOUND": "CC1(C)CCC(CN2CCN(c3ccc(C(=O)NS(=O)(=O)c4cc5c(c([N+](=O)[O-])c4)N[C@@H](CC4CCC(O)CC4)CO5)c(Oc4cnc5[nH]ccc5c4)c3)CC2)=C(c2ccc(Cl)cc2)C1 (single isomer, unassigned) [Example 2-244B]", "MEASURED_QUANTITY": "IC50", "MEAS_VALUE": 3}
{"COMPOUND": "CC1(C)CCC(CN2CCN(c3ccc(C(=O)NS(=O)(=O)c4cc5c(c([N+](=O)[O-])c4)N[C@@H](CC#N)CO5)c(Oc4cnc5[nH]ccc5c4)c3)CC2)=C(c2ccc(Cl)cc2)C1", "MEASURED_QUANTITY": "IC50", "MEAS_VALUE": 6}
{"COMPOUND": "CC1(C)CCC(CN2CCN(c3ccc(C(=O)NS(=O)(=O)c4cc5c(c([N+](=O)[O-])c4)N[C@H](C4CCC(O)CC4)CO5)c(Oc4cnc5[nH]ccc5c4)c3)CC2)=C(c2ccc(Cl)cc2)C1 (single isomer, unassigned) [Example 2-240B]", "MEASURED_QUANTITY": "IC50", "MEAS_VALUE": 1}

get_value(item= CC1(C)CCC(CN2CCN(c3ccc(C(=O)NS(=O)(=O)c4cc5c(c([N+](=O)[O-])c4)N[C@@H](CCN=S(C)(C)=O)CO5)c(Oc4cnc5[nH]ccc5c4)c3)CC2)=C(c2ccc(Cl)cc2)C1 , readout=IC50) returns 1

get_value(item= CC1(C)CCC(CN2CCN(c3ccc(C(=O)NS(=O)(=O)c4cc5c(c([N+](=O)[O-])c4)N[C@H](CC4CCC(O)CC4)CO5)c(Oc4cnc5[nH]ccc5c4)c3)CC2)=C(c2ccc(Cl)cc2)C1 (single isomer, unassigned) [Example 2-239B] , readout=IC50) returns 1
